Every entry's value here was drawn from paper PMC9501633.

# remaining at 4 h, 0.8 mg/mL per entry
- EXPERIMENT_DESCRIPTION: Stability under degradation conditions (HPLC)
- Assay type: physicochemical
- STATED_CONDITIONS: 0.1 M NaOH added to stock solution, alkaline (0.1M NaOH)
PROPERTY_MEASURED: remaining at 4 h, 0.8 mg/mL (%)

# MOLECULE, PROPERTY_MEASURED, REPORTED_MEASUREMENT
records = [
    ("COc1ccc(C2C(F)C(=O)N2c2cc(OC)c(OC)c(OC)c2)cc1F (centres unmarked)", "remaining at 4 h, 0.8 mg/mL", 65),
    ("CCSc1ccc(C2N(c3cc(OC)c(OC)c(OC)c3)C(=O)C2(F)F)cc1 (centres unmarked)", "remaining at 4 h, 0.8 mg/mL", 60),
]
